The entries below come with measured GST activity toward metolachlor values attached.
Assay name: GST activity toward herbicide metolachlor (HPLC-based assay)
Format: biochemical
Setup conditions: recombinant wheat GST expressed in E. coli, affinity purified; ± standard error
Experimental: The purified isoenzymes were assayed for GST activity toward herbicides using the HPLC-based assays described by Edwards R. and Cole D. J. (Pesticide Biochemistry and Physiology Vol. 54, pp96-104 (1996)) and the results are presented in Table 2. […] These isoenzymes had additional activities as glutathione peroxidases able to reduce linoleic acid hydroperoxide, a major reaction product formed during membrane peroxidation in plants (Williamson and Beverly. J. Cereal Sci. 8, 1988, 155-163). […]
Field format: number, assumed nkat.mg^−1, no unit text.

{"Molecule": "WIC 5: recombinant type I wheat GST, SEQ ID No. 9, amino acid SEQ ID No. 10 (protein, Triticum aestivum L.) MAPIKLYGMMLSANVTRVTTLLNELGLEFDFVDVDLRTGAHKHPDFLKLNPFGQIPALQDGDEVVFESRAINRYIATKYGASLLPTPSAKLEAWLEVESHHFYPPARTLVYELVIKPMLGAPTDAAEVDKNAADLAKLLDVYEAHLAAGNKYLAGDAFPLADANHMSYLFMLTKSPKADLVASRPHVKAWWEEISARPAWAKTVASIPLPPAV", "GST activity toward metolachlor [nkat.mg^−1]": 0.040}

Here is another molecule to look at.
Item under review: TaGST1: recombinant wheat GST from TaGST1 cDNA (SEQ ID No. 1, amino acid SEQ ID No. 2) expressed in E. coli (protein, Triticum aestivum L.) MAGEKGLVLLDFWVSPFGQRVRIALAEKGLPYEYAEEDLMAGKSDRLLRANPVHKKIPVLLHDGRAVNESLIILQYLEEAFPDAPALLPSDPYARAQARFWADYVDKKVYDCGSRLWKLKGEPQAQARAEMLDILKTLDGALGDKPFFGGDKFGFVDAAFAPFTAWFHSYERYGEFSLPEVAPKIAAWAKRCGERESVAKSLYSPDKVYDFIGLLKKKYGIE . Reported GST activity toward metolachlor?
0.127
